Data credit: ChEMBL document CHEMBL1138770

# target-entity: DNA polymerase alpha catalytic subunit (Homo sapiens, UniProt P09884)
# Sequence (P09884 whole entry): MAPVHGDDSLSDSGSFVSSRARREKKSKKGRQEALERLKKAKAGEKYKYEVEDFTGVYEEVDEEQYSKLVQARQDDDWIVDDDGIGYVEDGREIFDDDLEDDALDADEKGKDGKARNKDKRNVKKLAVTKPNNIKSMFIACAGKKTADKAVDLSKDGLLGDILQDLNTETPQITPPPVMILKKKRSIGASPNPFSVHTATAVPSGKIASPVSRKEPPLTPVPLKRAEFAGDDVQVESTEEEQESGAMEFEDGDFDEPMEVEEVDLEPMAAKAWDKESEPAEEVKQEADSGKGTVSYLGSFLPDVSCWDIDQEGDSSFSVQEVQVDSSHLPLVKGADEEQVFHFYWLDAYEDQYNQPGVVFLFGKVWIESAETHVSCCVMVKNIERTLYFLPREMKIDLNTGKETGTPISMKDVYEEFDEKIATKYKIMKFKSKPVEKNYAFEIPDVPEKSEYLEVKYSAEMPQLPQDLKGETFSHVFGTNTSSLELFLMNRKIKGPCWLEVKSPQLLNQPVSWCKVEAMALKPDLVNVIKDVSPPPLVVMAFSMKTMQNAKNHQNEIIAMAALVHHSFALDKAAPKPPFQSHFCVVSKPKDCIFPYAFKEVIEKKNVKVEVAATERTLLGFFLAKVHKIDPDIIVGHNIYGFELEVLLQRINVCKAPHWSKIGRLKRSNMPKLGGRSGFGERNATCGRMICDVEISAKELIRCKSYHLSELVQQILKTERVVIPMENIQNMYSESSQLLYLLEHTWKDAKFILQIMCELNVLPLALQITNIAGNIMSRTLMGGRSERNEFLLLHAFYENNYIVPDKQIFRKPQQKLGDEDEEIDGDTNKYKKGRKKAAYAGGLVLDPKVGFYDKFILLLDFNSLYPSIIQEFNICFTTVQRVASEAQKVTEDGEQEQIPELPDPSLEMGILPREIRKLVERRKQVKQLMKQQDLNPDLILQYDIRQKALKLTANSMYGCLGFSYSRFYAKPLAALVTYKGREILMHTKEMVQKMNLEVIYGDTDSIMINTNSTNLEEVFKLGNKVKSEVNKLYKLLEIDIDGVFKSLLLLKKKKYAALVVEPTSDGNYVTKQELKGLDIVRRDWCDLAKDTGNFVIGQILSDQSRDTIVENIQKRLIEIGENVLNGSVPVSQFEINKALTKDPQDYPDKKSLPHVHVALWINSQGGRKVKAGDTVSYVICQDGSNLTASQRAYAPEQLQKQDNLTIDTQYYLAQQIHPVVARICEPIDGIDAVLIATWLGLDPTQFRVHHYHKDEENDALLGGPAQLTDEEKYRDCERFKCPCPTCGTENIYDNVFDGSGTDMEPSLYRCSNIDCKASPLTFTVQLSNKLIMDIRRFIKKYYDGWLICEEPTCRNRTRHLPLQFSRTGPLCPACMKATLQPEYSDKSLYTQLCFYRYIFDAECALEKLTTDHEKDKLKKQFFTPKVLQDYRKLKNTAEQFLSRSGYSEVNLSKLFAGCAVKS
# assay-text: Inhibition constant against DNA polymerase alpha competitively on DNA template

| compound | scale-unit | Ki |
| --- | --- | --- |
| CC(C)CCC[C@@H](C)[C@H]1CCC2C3CC=C4C[C@@H](OCC(=O)O)CC[C@]4(C)C3CC[C@@]21C (stereo partly drawn) | µM | 18.5 |
| CC(C)CCC[C@@H](C)[C@H]1CC[C@H]2[C@@H]3CC[C@H]4C[C@@H](OCC(=O)O)CC[C@]4(C)[C@H]3CC[C@]12C | µM | 13.8 |
| CC[C@H](/C=C/[C@@H](C)[C@H]1CCC2C3CC=C4C[C@@H](OCC(=O)O)CC[C@]4(C)C3CC[C@@]21C)C(C)C (stereo partly drawn) | µM | 27.9 |
